Assay: RP, Phenomenex Kinetex C18, 150 × 2.1 mm, 1.7 µm, 30 °C, 0.3 mL/min, estimated dead time 1.1 min; A: water + 0.1% formic acid, pH 3; B: acetonitrile + 0.1% formic acid, pH 3; gradient (min/%B) 0/2 14/100 17/100 17.1/2 25/2
Conditions: stereoisomer not certain
QUANTITY_KIND: LC retention time (min)
Please give a number only; it is taken to be in min.

> print(dat)
                                   compound      quantity.kind  recorded.measurement
1            O=C([O-])c1cccnc1 [NICOTINATE]  LC retention time                  1.41
2  CC12CCC(=O)C=C1CCC1C2C(O)CC2(C)C(C(=O)CO)CCC12 (centres undefined)  LC retention time                  8.03
3       O=C(O)Cc1cc(O)ccc1O [HOMOGENTISATE]  LC retention time                  3.31

Note to self: LC retention time recorded for O=C(O)CCC(=O)O [SUCCINATE] was 1.95
